tested on: 156681-154-R-J1 tumor spheroid viability; assay: Anticancer human tumor 156681-154-R-J1 patient-derived melanoma cell line growth inhibition; settings: second compound 0.0003 µM; first compound 3 µM; stronger effect = lower value; spheroids with HUVEC and MSC
Exercise: state measured viability, T/C for each of the compounds provided.
The reply should contain only the number, in %.

Just so you know, measured viability, T/C for Cc1sc2c(c1C)C(c1ccc(Cl)cc1)=NC(CC(=O)Nc1ccc(O)cc1)c1nnc(C)n1-2 (centres undefined) + COc1cc2c(cc1O)CCNC21CSC2c3c(OC(C)=O)c(C)c4c(c3C(COC1=O)N1C(O)C3Cc5cc(C)c(OC)c(O)c5C(C21)N3C)OCO4 came out at 9.14

Just so you know, measured viability, T/C for CNCc1ccc(-c2cc(-c3nc(-c4ccc(S(=O)(=O)C(C)C)cc4)cnc3N)on2)cc1 + COc1cc2c(cc1O)CCNC21CSC2c3c(OC(C)=O)c(C)c4c(c3C(COC1=O)N1C(O)C3Cc5cc(C)c(OC)c(O)c5C(C21)N3C)OCO4 came out at 1.71

Just so you know, measured viability, T/C for Cn1ncnc1[C@H]1c2n[nH]c(=O)c3cc(F)cc(c23)N[C@@H]1c1ccc(F)cc1 + COc1cc2c(cc1O)CCNC21CSC2c3c(OC(C)=O)c(C)c4c(c3C(COC1=O)N1C(O)C3Cc5cc(C)c(OC)c(O)c5C(C21)N3C)OCO4 came out at 11.3

Just so you know, measured viability, T/C for O=C(c1cc(Cc2n[nH]c(=O)c3ccccc23)ccc1F)N1CCN(C(=O)C2CC2)CC1 + COc1cc2c(cc1O)CCNC21CSC2c3c(OC(C)=O)c(C)c4c(c3C(COC1=O)N1C(O)C3Cc5cc(C)c(OC)c(O)c5C(C21)N3C)OCO4 came out at 66.8

###

tested on: 156681-154-R-J1 tumor spheroid viability; experiment: Anticancer human tumor 156681-154-R-J1 cell line growth inhibition; settings: second compound 31.6 µM; first compound 0.0949 µM; stronger effect = lower value; spheroids with HUVEC and MSC;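 note: spheroids exposed to compounds for 7 days before readout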;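 for viability, T/C: percent of vehicle control viability where 100% = DMSO-treated spheroids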
Exercise: state measured viability, T/C for each of the molecules provided.
The reply should contain only the number, in %.

Just so you know, measured viability, T/C for Cn1ncnc1[C@H]1c2n[nH]c(=O)c3cc(F)cc(c23)N[C@@H]1c1ccc(F)cc1 + Cn1nnc2c(C(N)=O)ncn2c1=O came out at 34.9

Just so you know, measured viability, T/C for CNCc1ccc(-c2cc(-c3nc(-c4ccc(S(=O)(=O)C(C)C)cc4)cnc3N)on2)cc1 + Cn1nnc2c(C(N)=O)ncn2c1=O came out at 59.5

Just so you know, measured viability, T/C for Cc1sc2c(c1C)C(c1ccc(Cl)cc1)=NC(CC(=O)Nc1ccc(O)cc1)c1nnc(C)n1-2 (centres undefined) + Cn1nnc2c(C(N)=O)ncn2c1=O came out at 31.8

Just so you know, measured viability, T/C for O=C(c1cc(Cc2n[nH]c(=O)c3ccccc23)ccc1F)N1CCN(C(=O)C2CC2)CC1 + Cn1nnc2c(C(N)=O)ncn2c1=O came out at 69

###

Exercise: state measured IC50 for each of the compounds provided.
test system: 156681-154-R-J1 tumor spheroid viability; assay: Anticancer human tumor 156681-154-R-J1 cell line growth inhibition; details: curve of first compound; second compound 0.003 µM; spheroids with HUVEC and MSC;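 note: spheroids exposed to compounds for 7 days before readout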

Just so you know, measured IC50 for Cc1cc(C)c(CNC(=O)c2cc(-c3ccc(CN4CCOCC4)cc3)cc3c2cnn3C2CCCC2)c(=O)[nH]1 + COc1cc2c(cc1O)CCNC21CSC2c3c(OC(C)=O)c(C)c4c(c3C(COC1=O)N1C(O)C3Cc5cc(C)c(OC)c(O)c5C(C21)N3C)OCO4 came out at < 31.6 nM

Just so you know, measured IC50 for COc1ccc([C@@H](O)c2cc(-c3ncnc4cc(N5CCOCC5)ccc34)c(F)cc2Cl)nn1 + CC[C@@]1(O)C(=O)OCc2c1cc1n(c2=O)Cc2cc3c(CN(C)C)c(O)ccc3nc2-1 came out at 5780 nM

Just so you know, measured IC50 for O=C(c1cc(Cc2n[nH]c(=O)c3ccccc23)ccc1F)N1CCN(C(=O)C2CC2)CC1 + COc1cc2c(cc1O)CCNC21CSC2c3c(OC(C)=O)c(C)c4c(c3C(COC1=O)N1C(O)C3Cc5cc(C)c(OC)c(O)c5C(C21)N3C)OCO4 came out at < 94.9 nM

Just so you know, measured IC50 for COc1cc(C)[nH]c(=O)c1CN1CCc2c(Cl)cc(C(OC)C3COC3)c(Cl)c2C1=O (centres undefined) + COc1cc2c(cc1O)CCNC21CSC2c3c(OC(C)=O)c(C)c4c(c3C(COC1=O)N1C(O)C3Cc5cc(C)c(OC)c(O)c5C(C21)N3C)OCO4 came out at < 31.6 nM
